Exercise: state measured composite z-score for each of the compounds provided.
- Tgt: Torsin-1A (Homo sapiens) (UniProt O14656)
- Sequence (O14656 whole entry, looked up): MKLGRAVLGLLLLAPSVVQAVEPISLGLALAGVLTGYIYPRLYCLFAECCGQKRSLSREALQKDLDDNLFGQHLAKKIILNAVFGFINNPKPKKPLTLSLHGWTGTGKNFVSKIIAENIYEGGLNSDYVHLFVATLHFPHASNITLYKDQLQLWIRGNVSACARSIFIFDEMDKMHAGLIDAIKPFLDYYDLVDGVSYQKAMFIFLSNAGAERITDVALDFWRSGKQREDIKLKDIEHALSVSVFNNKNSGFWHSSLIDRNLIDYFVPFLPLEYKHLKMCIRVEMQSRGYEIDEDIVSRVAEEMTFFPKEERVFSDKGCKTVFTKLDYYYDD
- Test Details: small-molecule binders of mutant TOR1A in lysate, primary screen, cell lysate, small-molecule microarray, COS7 lysate, 635/667 nm fluorescence (AID 1150);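 note: score pools 667 nm emission and signal to noise measuring lysate protein binding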
- Assay Context: COS7 hTOR1A mutant lysate, 635 nm fluorescence, higher = more signal

Example results:
INSERT INTO measurements (compound, reported_result) VALUES
  ('CCOC(=O)C[C@H]1[C@H](OC(=O)c2ccccc2-c2ccccc2)[C@@H](NC(=O)c2ccc(-c3ccccc3)cc2)c2cc(OCCCO)ccc2N1C(=O)Cc1ccc(OC)cc1', 1.02),
  ('O=C/C=C/c1ccccc1Cl', 0.081),
  ('Cc1ccccc1C(O)C1C=CC2C(=O)N(c3ccccc3)C(=O)C2N1Nc1ccc(C#N)cc1 (stereo not drawn)', 1.58),
  ('CC(C)CN1C(=O)[C@@]2(Cc3ccccc31)c1ccccc1C(=O)N(C1CCCCC1)[C@H]2c1ccc(CO)cc1', -0.488);

Quick one: give me composite z-score for each item below, same order please.
1. CO[C@H]1COC(=O)CC=C[C@H](C)COC(=O)[C@@H](OCc2ccccc2)C=C[C@@H]1C
2. CC[C@H]1C2=C3C(CC[C@H]4C(OC)OC[C@](C)([C@@H]34)N(C(=O)OC(C)(C)C)C2)C(CO)C1CO (stereo partly drawn)

## Output
2.29
1.87

Quick one: give me composite z-score for each item below, same order please.
1. C=CCNC(=O)[C@H]1[C@@H]2C(=O)O[C@@H](c3ccccc3)[C@@H](c3ccccc3)N2[C@@H](c2ccccc2OCCO)[C@]12C(=O)N(C(=O)OCCOC)c1ccc(C#CCC(C(=O)OC)C(=O)OC)cc12
2. O=C1C2C=CC(C(O)C#Cc3ccccc3)N(Nc3ccccc3)C2C(=O)N1c1ccccc1 (stereo not drawn)

## Output
[0.946, -0.0627]

* * *

- Test Details: modulators of S6 phosphorylation in cells, primary screen, cell-based, A549, cytoblot, luminescence, serum-stimulated (AID 1158);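 note: serum-stimulated A549 lung adenocarcinoma cells; signal is phosphorylated S6 detected by cytoblot immunostaining with HRP secondary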
- Assay Context: A549 phospho-S6 cytoblot, 5 h, higher = more signal
Experimental Endpoint: z-score

Example results:
INSERT INTO assay_data (query_smiles, reported_result) VALUES
  ('O=C1O[C@H](c2ccccc2)[C@H](c2ccccc2)N2[C@H]1[C@@H](C(=O)Nc1nc3ccccc3s1)[C@]1(C(=O)Nc3ccc(C#CC4(O)CCCCCC4)cc31)[C@H]2c1ccc(O)cc1', -0.0907),
  ('COCCCNC(=O)[C@@]1(Sc2ccc(C)cc2)CC(=O)N(Cc2cc(C(F)(F)F)cc(C(F)(F)F)c2)[C@@H]1c1ccc(CO)cc1I', 0.411);

## Input So what does the record say about z-score for `CCN1C(C)=C(C(=O)OC)[C@@H](c2ccccc2)N2C(=O)[C@@]3(C(=O)OC)O[C@@]12[C@@H]1C(=O)CCC[C@@H]13` ?
## Output 0.641

* * *

Exercise: state measured z-score for each of the compounds provided.
- Test Details: Plasmodium falciparum growth inhibition, primary screen, strain 3D7, DAPI fluorescence, 100 nL (AID 1184);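 note: parasites grown inside human red blood cells in medium with human serum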
- Assay Context: P. falciparum 3D7 growth, 3 d, higher = more signal
Answers are plain numbers.

INSERT INTO assay_data (compound, experimental_endpoint, reported_result) VALUES
  ('COC(=O)C1=C(C)N(Cc2ccccc2)c2c(C(=O)OC)c(C(=O)OC)c(C(=O)OC)c(=O)n2[C@@H]1c1ccccc1', 'z-score', 0.149);

Quick one: give me z-score for each item below, same order please.
1. CC(C)CN1C(=O)[C@@]2(Cc3ccccc31)c1ccccc1C(=O)N(C1CCCCC1)[C@H]2c1ccc(CO)cc1
2. CO[C@@H]1COC(=O)[C@@H]2CCCN2C(=O)CC=C[C@@H](C)[C@H](OC)COC(=O)[C@@H]2CCCN2C(=O)CC=C[C@H]1C

## Output
1: -1.38; 2: 0.583

Quick one: give me z-score for each item below, same order please.
1. C=CCNC(=O)[C@H]1[C@@H]2C(=O)O[C@@H](c3ccccc3)[C@@H](c3ccccc3)N2[C@@H](c2ccccc2OCCO)[C@]12C(=O)N(C(=O)OCCOC)c1ccc(C#CCC(C(=O)OC)C(=O)OC)cc12
2. CN(C)CCCC[C@@H]1NC(=O)[C@@H]2C[C@H](C(=O)O)[C@H](c3ccc(O)cc3)N2C1=O
3. COc1ccc([Si](C)(C)[C@H]2[C@H](CCO)O[C@@]3(C(=O)N(Cc4ccccc4)c4ccc(N5C(=O)c6cccc7cccc5c67)cc43)[C@@H]2C)cc1
4. CCC#CCN(Cc1ccccc1Br)[C@H](/C=C/c1ccccc1)[C@@H](O)Cc1ccccc1

## Output
[-2.36, -1.35, -2.48, -0.609]

Quick one: give me z-score for each item below, same order please.
1. C=C(CCCC)/C(=C/C[C@@H](OC(=O)c1ccncc1)c1ccc(CO)o1)c1cnc2ccccc2c1
2. C=C(CCCC)/C(=C/C[C@@H](OC(=O)c1ccncc1)c1cccc(OCCO)c1)c1cc(C(=O)OC)ccc1OC
3. [N-]=[N+]=NCc1ccccc1[C@H]1OC(c2ccc(OCCCO)cc2)=N[C@@]1(Cc1ccccc1N=[N+]=[N-])C(=O)NCc1ccccc1

## Output
[-0.573, -3.09, -2.49]

Quick one: give me z-score for each item below, same order please.
1. Cc1ccc(N2C(=O)c3ccccc3[C@@H](C(=O)NCc3ccccc3)[C@@H]2c2ccc(CO)cc2)nc1
2. CO[C@H]1COC(=O)[C@@H](Cc2ccccc2)NC(=O)[C@@H](C)COC(=O)CC=C[C@@H]1C
3. C=CCN(C(=O)C1N(c2ccc(CCO)cc2)C(=O)C2C(C(=O)O)C3C=CC21O3)C(C)(C)C (stereo not drawn)

## Output
1. -0.432
2. -0.0923
3. -1.71

* * *

Exercise: state measured z-score for each of the compounds provided.
- Test Details: modulators of S6 phosphorylation in cells, primary screen, cell-based, A549, cytoblot, luminescence, serum-stimulated (AID 1158);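 note: serum-stimulated A549 lung adenocarcinoma cells; signal is phosphorylated S6 detected by cytoblot immunostaining with HRP secondary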
- Assay Context: A549 phospho-S6 cytoblot, 5 h, higher = more signal
Answers are plain numbers.

Example results:
INSERT INTO measurements (compound, reported_result) VALUES
  ('C=C(COC)C(=O)CC[C@H](OC(=O)c1ccccc1-c1ccccc1C(=O)O)c1cccc(OCCO)c1', 0.29),
  ('CO[C@H]1COC(=O)[C@@H](C)NC(=O)CC=C[C@@H](C)[C@H](OC)COC(=O)CC=C[C@@H]1C', 0.722),
  ('C=CC[C@]1(C(=O)O)N=C(c2ccc(OCCCO)cc2)O[C@H]1c1ccccc1', 0.663);

Quick one: give me z-score for each item below, same order please.
1. C=C(COC)/C(=C/C[C@H](OC(C)=O)c1ccc(OCCO)cc1)c1cnc2ccccc2c1
2. CC(C)(C)OC(=O)CC[C@]1(C(=O)NCCN2CCOCC2)N=C(c2ccc(OCCCO)cc2)O[C@H]1c1ccccc1CN=[N+]=[N-]
3. CN1C2C=C(c3ccc(CO)cc3)C(C3C(=O)N(C(N)=O)C(=O)C32)C1c1cccs1 (stereo not given)

## Output
1: -0.117; 2: 1.04; 3: -0.402

Quick one: give me z-score for each item below, same order please.
1. N#Cc1ccc(NN2C(C(O)c3ccc(I)cc3)C=CC3C(=O)N(c4ccccc4)C(=O)C32)cc1 (stereo not given)
2. CC(=O)NCCCC[C@@H]1NC(=O)[C@@H]2C[C@H](C(=O)NCCCCCNC(=O)CS)[C@H](c3ccc(O)cc3)N2C1=O
3. C[C@]1(C(=O)NCCN2CCOCC2)c2ccccc2C(=O)N(Cc2ccccc2)[C@H]1c1ccc(CO)cc1

## Output
-0.484
1.68
0.282

Quick one: give me z-score for each item below, same order please.
1. COc1cc(Cc2cc3c(c(CCc4ccccc4)n2)[Si](C(C)C)(C(C)C)OC3)cc(OC)c1OC
2. CCCCO[C@H]1C[C@H]2C(Br)=C[C@@]1(CO)C(=O)[C@]21CO1

## Output
-0.475
1.69

Quick one: give me z-score for each item below, same order please.
1. Cc1ccc([C@@H]2CC=C(C(=O)O)[C@H](c3ccccc3)N2S(=O)(=O)c2ccc(C)cc2)cc1
2. CO[C@H]1O[C@H](CO)[C@@H](OC(=O)CCc2ccccc2)[C@@H]2OC(=O)[C@H](Cc3cccc(Br)c3)C/C=C/C[C@@H](Cc3cccc(Br)c3)C(=O)O[C@@H]12
3. COCCCNC(=O)[C@@H]1c2ccccc2C(=O)N(CC23CC4CC(CC(C4)C2)C3)[C@H]1c1ccc(CO)cc1
4. CCOC(=O)C1=CC[C@@H](c2ccc(-c3ccc(OCc4ccccc4)cc3)c(OC)c2)N(S(=O)(=O)c2ccc(C)cc2)[C@H]1c1ccccc1

## Output
1. -0.256
2. 2.26
3. 2.61
4. -0.533
